// data source = patent US20040116330A1

System: HCT-116
Test: cells
Details: Homo sapiens, HCT-116, read-out: Compound B4 IC50 (μmol/L), HCT-116
pIC50: −log10 of the molar value.
endpoint: pIC50

*Q* What value of pIC50 has been recorded for this entry: FC(F)(F)c1ccc(/C=C/c2nc(COc3ccc(CCCCn4ccnn4)cc3)co2)cc1 [Compound B4]
*A* > 7.30
